- PROTOCOL_TEXT: Cytotoxicity against human HepG2 cells assessed as cell proliferation at 50 uM after 48 hrs by WST-1 assay (Rvb =100%)
- Assay type: cell-based
- EXPERIMENTAL_CONDITIONS: read-out: Activity
MEASURE: viability at 48 h, 50 µM (%)
State the answer as a number, implicitly in %.

Prompt line: Item Cc1ccccc1-c1noc(-c2cccc(C(=O)O)c2)n1 : provide viability at 48 h, 50 µM
Response line: 86

* * *

- PROTOCOL_TEXT: Solubility of the compound in 1% aqueous DMSO solution measured after 4 hrs by HPLC analysis
- Format: physicochemical
MEASURE: solubility at 4 h (µg/mL)
State the answer as a number, implicitly in µg/mL.

Prompt line: Item CCN(CC)c1ccc2cc(-c3nc(-c4ccccc4)no3)c(=O)oc2c1 : provide solubility at 4 h
Response line: 9.98

* * *

- PROTOCOL_TEXT: Metabolic stability in Sprague-Dawley rat liver microsomes assessed as compound remaining at 10 uM after 15 mins by HPLC analysis
- Assay type: ADME
- EXPERIMENTAL_CONDITIONS: read-out: Stability
MEASURE: remaining at 0.25 h, 10 µM (%)
State the answer as a number, implicitly in %.

Prompt line: Item Cc1ccccc1-c1noc(-c2cccc(C(=O)O)c2)n1 : provide remaining at 0.25 h, 10 µM
Response line: 84.6

* * *

- PROTOCOL_TEXT: Metabolic stability in Sprague-Dawley rat liver microsomes assessed as compound remaining at 10 uM after 60 mins by HPLC analysis
- Type: ADME
- EXPERIMENTAL_CONDITIONS: read-out: Stability
MEASURE: remaining at 1 h, 10 µM (%)
State the answer as a number, implicitly in %.

Prompt line: Item Cc1ccccc1-c1noc(-c2cccc(C(=O)O)c2)n1 : provide remaining at 1 h, 10 µM
Response line: 53.9

* * *

- TGT: Bile acid receptor (Homo sapiens)
- Sequence (Q96RI1 whole entry): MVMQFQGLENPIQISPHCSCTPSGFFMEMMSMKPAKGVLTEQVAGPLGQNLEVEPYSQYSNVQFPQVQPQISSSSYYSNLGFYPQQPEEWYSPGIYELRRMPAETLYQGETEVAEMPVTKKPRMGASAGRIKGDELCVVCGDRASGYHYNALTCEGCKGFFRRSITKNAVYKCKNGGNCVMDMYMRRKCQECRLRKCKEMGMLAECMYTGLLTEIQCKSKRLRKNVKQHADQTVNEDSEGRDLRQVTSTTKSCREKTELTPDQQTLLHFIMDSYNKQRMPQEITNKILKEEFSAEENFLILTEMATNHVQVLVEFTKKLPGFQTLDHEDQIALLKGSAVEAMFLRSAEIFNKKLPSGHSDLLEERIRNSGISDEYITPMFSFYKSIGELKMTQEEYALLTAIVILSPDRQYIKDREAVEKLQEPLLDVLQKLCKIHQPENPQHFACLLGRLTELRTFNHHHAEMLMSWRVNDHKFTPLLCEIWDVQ
- PROTOCOL_TEXT: Antagonist activity at human full length FXR expressed in HeLa cells cotransfected with pSG5-human RXR after 24 hrs by Dual-Glo luciferase reporter gene assay
- Type: cell-based
MEASURE: IC50 (µM)
State the answer as a number, implicitly in µM.

Prompt line: Item COc1ccc(-c2nc(-c3ccccc3)no2)cc1 : provide IC50
Response line: 16.4

* * *

- PROTOCOL_TEXT: Solubility of the compound in 1% aqueous DMSO solution by HPLC analysis
- Assay type: physicochemical
Recorded solubility for the following compounds
State the answer as a number, implicitly in µg/mL.

CCN(CC)c1ccc2cc(-c3nc(-c4ccccc4)no3)c(=O)oc2c1 :: 10.1

Prompt line: Item Cc1ccccc1-c1noc(-c2cccc(C(=O)O)c2)n1 : provide solubility
Response line: 33

* * *

- PROTOCOL_TEXT: Metabolic stability in Sprague-Dawley rat liver microsomes assessed as compound remaining at 10 uM by HPLC analysis
- Type: ADME
- EXPERIMENTAL_CONDITIONS: read-out: Stability
MEASURE: remaining at 10 µM

Prompt line: Item Cc1ccccc1-c1noc(-c2cccc(C(=O)O)c2)n1 : provide remaining at 10 µM
Response line: 99.4%

* * *

- PROTOCOL_TEXT: Cytotoxicity against human HepG2 cells assessed as cell proliferation at 5 uM after 48 hrs by WST-1 assay (Rvb =100%)
- Format: cell-based
- EXPERIMENTAL_CONDITIONS: read-out: Activity
MEASURE: viability at 48 h, 5 µM

Prompt line: Item Cc1ccccc1-c1noc(-c2cccc(C(=O)O)c2)n1 : provide viability at 48 h, 5 µM
Response line: 109%
